Assay: SK-BR-3 cell growth inhibitors, pilot screen, 24 h, human (AID 572);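 further: compound exposure lasted between 18 and 24 h rather than exactly 24 h; 100% = carrier-treated control wells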
Conditions: SK-BR-3 viability, CellTiter-Glo luminescence, at 10 µM, stronger effect = lower value
REPORTED_ENDPOINT: viability (%)
Write the number in % without appending the unit.

Q: Let me know recorded viability for CCCCCc1c(O)c2ccccc2[nH]c1=O , thanks.
Ans: 108

Q: Give the reported viability for this molecule. CN(c1ccccc1)S(=O)(=O)c1ccc(C(=O)OCC(=O)NCc2ccco2)cc1
Ans: 95.5

Q: # return recorded viability for input COc1cc(C2C(C#N)=C(N)Oc3cc(N)ccc32)cc(OC)c1OC (configuration not stated)
Ans: 91.5

Q: Dear colleague, please send me the reported viability for COc1ccc(C2/C(=C(/O)c3cnn(-c4ccccc4)c3C)C(=O)C(=O)N2CCN(C)C)cc1OC (configuration not stated) when you can.
Ans: 109

Q: Give me measured viability, please, for this molecule: COC(=O)Cn1c2c(c3cc(C)ccc31)CCCC2
Ans: 83

Q: State its viability for this molecule: Cc1cc(NC(=O)Cn2cnc3c(cnn3C(C)(C)C)c2=O)no1
Ans: 91.5

Q: Item Cc1cccc(COc2ccc(/C(O)=C3\C(=O)C(=O)N(CCN(C)C)C3c3ccncc3)cc2)c1 (configuration not stated) : provide viability
Ans: 108

Q: Indicate the recorded viability value for this molecule: CCCCCn1c(CN2CCN(C(=O)OCC)CC2)nc2c1c(=O)[nH]c(=O)n2C
Ans: 82

Q: Using the record for CC1=C(C)C(=O)NC(Nc2nc(C)c3cc(C)cc(C)c3n2)N1 (configuration not stated) , state its measured viability.
Ans: 120

Q: Determine from records and report viability for COCCCNC(=O)C1CCCN(C(=O)Nc2ccc(OC)cc2)C1 (configuration not stated)
Ans: 98

Q: Let me know recorded viability for COc1cc(C(=O)N2CCC(c3nc(-c4cccnc4)no3)CC2)cc(OC)c1OC , thanks.
Ans: 96

Q: Output viability of Cc1cccc(OCCCc2c(C)n[nH]c2C)c1
Ans: 102

Q: Indicate the recorded viability value for this molecule: Cc1cc(C)n(CCc2nc(-c3cccs3)cs2)n1
Ans: 93

Q: Answer with the recorded viability of Cc1nn(-c2ccc(F)cc2)c2sc(C(=O)OCC(=O)N3CCC(C)CC3)cc12 only.
Ans: 93

Q: Please give measured viability of the following entry: Nc1nc(N)nc(-c2ccccc2)n1
Ans: 97.5

Q: Return the recorded viability value; entry: Cc1c(C(=O)NCCC2=CCCCC2)oc2ccc(S(=O)(=O)N3CCC4(CC3)OCCO4)cc12
Ans: 94.5

Q: Return viability for the following molecule: COC(=O)Cn1cnc2c(nnn2-c2ccc(C)cc2)c1=O
Ans: 86

Q: Determine its reported viability: CCOc1ccc2[nH]c(=O)c(CN(Cc3nnnn3CCc3ccccc3)CC3CCCO3)cc2c1 (configuration not stated)
Ans: 78.5

Q: Indicate its recorded viability; the molecule in question is COc1cccc(NC(=O)NC2(C(F)(F)F)Oc3ccccc3O2)c1
Ans: 91.5

Q: Provide viability value for the following molecule: COc1cccc(-n2ccnc2SCC(=O)N2CCc3ccccc32)c1
Ans: 94.5

Q: In one line, give reported viability of the entry CC(=O)N(C(C)=O)c1cccc2c(N(C(C)=O)C(C)=O)cccc12 .
Ans: 106

Q: Give the reported value of viability for this record: CCCCC(CC)C(=O)Nc1ccc(Cl)cn1 (configuration not stated)
Ans: 103

* * *

Experiment: reversal of MRP1-mediated doxorubicin resistance, pilot screen, H69AR cells, doxorubicin co-treatment (AID 601)
Settings: H69AR cells + 2 uM doxorubicin, CellTiter-Glo, 72 h; measured here: viability with 2 uM doxorubicin; at 10 µM; stronger effect = lower value
I'd be grateful if you could share measured viability for these entries.
Respond numerically; units are % and should not be typed.

Q: Name the recorded viability of the molecule listed here: CCn1c(SCC(=O)c2ccc3c(c2)OCCO3)nnc1-c1ccco1
Ans: 97.9

Q: Identify the reported viability for the following entry. Cc1cccc(-c2c3c(=O)n(C)c(=O)n(C)c3cn2-c2ccc(O)cc2)c1
Ans: 93.1

Q: Quick one: give measured viability for COC(=O)c1cc(NS(=O)(=O)c2ccc3c(c2)CCC(=O)N3)cc(C(=O)OC)c1
Ans: 95

Q: In one line, give reported viability of the entry CC(C)CCNC(=O)NC(=O)COc1ccccc1C#N .
Ans: 89.8

Q: Give recorded viability. CCOc1ccc2nc(SCC(=O)N3CCCCCC3)c(C#N)cc2c1
Ans: 89.4

Q: # return recorded viability for input Clc1ccccc1OCc1nn2c(-c3ccncc3)nnc2s1
Ans: 92.7

Q: Give a short answer stating reported viability for COc1cccc(C(=O)NCc2nnc(SCC(=O)Nc3nccs3)n2-c2ccccc2)c1 .
Ans: 101

Q: Output measured viability for this item: COC(=O)c1ccccc1NC(=O)C1CC(=O)N(c2ccccc2)C1 (stereo not given)
Ans: 80.9

Q: Item CC1Cc2nc(SCC(=O)Nc3ccc(F)cc3F)n(C)c(=O)c2S1 (stereo not given) : provide viability
Ans: 100

Q: Check the records and state viability for COc1cc(C2C(C#N)=C(N)OC3=C2C(=O)CC(C)(C)C3)ccc1OC(=O)N1CCOCC1 (stereo not given)
Ans: 94.2

* * *

Assay: reversal of MRP1-mediated doxorubicin resistance, pilot screen, H69AR cells, doxorubicin co-treatment (AID 601)
Settings: H69AR cells + 2 uM doxorubicin, CellTiter-Glo, 72 h; measured here: viability with 2 uM doxorubicin; at 10 µM; stronger effect = lower value
REPORTED_ENDPOINT: viability (%)
Please respond with the number in % and leave the unit unwritten.

Q: For CCCc1nnc(SCC(=O)N2CCOCC2)n1Cc1ccco1 , write its viability.
Ans: 81.6

Q: Read the entry CCc1cccc2c(=O)c(C(=O)N3CCCCCC3)c[nH]c12 and write its reported viability.
Ans: 96.1

Q: # return recorded viability for input C/C=C(\C)c1nnc(NC(=O)C(C)C)s1
Ans: 89.2

Q: Supply recorded viability for CCOC(=O)c1ccc(S(=O)(=O)Nc2cc(C(C)(C)C)no2)cc1 here.
Ans: 103

Q: Using the record for CC(=Nc1ccc(C)c(C)c1)C1=C(O)CCC1=O , state its measured viability.
Ans: 82.8

Q: State, in one line, measured viability of Cc1cc(C(=O)NCCCN2CCOCC2)n(-c2ccccc2)n1
Ans: 92.2

Q: Answer with reported viability of COc1cccc2cc(C(=O)N3CCN(C45CC6CC(CC(C6)C4)C5)CC3)c(=O)oc12
Ans: 94.7

Q: Provide measured viability value, entry: O=C1CCN(C(=O)c2ccccc2)C2CCCCC12 (stereo unspecified)
Ans: 91.1

Q: Given CC(C)Cn1c(CN(Cc2ccccc2)Cc2ccccc2)nc2c1c(=O)n(C)c(=O)n2C , respond with its viability.
Ans: 88.9

Q: Look up and state reported viability for Cc1c(C(=O)NCCC2=CCCCC2)oc2ccc(S(=O)(=O)N3CCC4(CC3)OCCO4)cc12
Ans: 52.4

Q: Query viability for Cc1ccccc1NC(=O)NCCCN1CCN(C2CCCCC2)CC1
Ans: 93.4

Q: Read the entry CCc1nnc(NC(=O)C2CCN(c3nccc(C)n3)CC2)s1 and write its reported viability.
Ans: 93.9

Q: Give me measured viability, please, for this compound: CS(=O)(=O)N(Cc1nc2sc3c(c2c(=O)[nH]1)CCCC3)C1CCCCC1
Ans: 82.7

Q: Supply recorded viability for O=S(=O)(NCC(c1cccnc1)N1CCN(c2ccccc2)CC1)c1cc(F)ccc1F (stereo unspecified) here.
Ans: 94.7

Q: Return the recorded viability value; entry: CNC(=O)Nc1cccc(C(F)(F)F)c1
Ans: 100

Q: Using the record for CCNc1nc(NCC)n2c(SCc3nc4ccccc4c(=O)[nH]3)nnc2n1 , state its measured viability.
Ans: 87.2

* * *

Assay: reversal of MRP1-mediated doxorubicin resistance, pilot screen, H69AR cells, doxorubicin co-treatment (AID 601)
Conditions: H69AR cells + 2 uM doxorubicin, CellTiter-Glo, 72 h; measured here: viability with 2 uM doxorubicin; at 10 µM; stronger effect = lower value
Field: label. Allowed values: fulfilled (viability < 90%) or not fulfilled (viability >= 90%).

Q: # check: viability < 90% for Cc1nc2c(C(=O)O)cnn2c(C)c1Cc1ccccc1F
Ans: fulfilled

Q: Please check: viability for CC(C)=CCCC(C)CN(C)CCc1ccccn1 (centres undefined) , strictly under 90% or not?
Ans: fulfilled

Q: Does the reported viability of the following compound sit strictly below 90%? Cc1cc(Nc2ccccc2N2CCOCC2)n2ncnc2n1
Ans: not fulfilled

Q: Quick check: does O=C1NC(Nc2ccccn2)(C(F)(F)F)C(=O)N1c1ccc(F)cc1 (centres undefined) have viability under 90%?
Ans: not fulfilled

Q: Check if viability falls below 90% for COc1ccc(CCn2c(=N)c(C#N)cc3c(=O)n4ccccc4nc32)cc1 .
Ans: fulfilled

Q: I'd appreciate it if you could check whether COc1ccc2nc(NC(=O)C(NS(=O)(=O)c3cccs3)C(C)C)sc2c1 (centres undefined) has viability smaller than 90%.
Ans: fulfilled

Q: # strict comparison: is reported viability < 90%? input = CCOC(=O)C1CCN(C(=O)c2ccc(OC)cc2OC)CC1
Ans: not fulfilled

Q: For this compound, is viability lower than 90%? Cc1c(/C(O)=C2/C(=O)C(=O)N(CCN3CCOCC3)C2c2cccnc2)cnn1-c1ccccc1 (centres undefined)
Ans: fulfilled

Q: Please let me know if COc1cc(OC)cc(-c2nnc(Nc3nc4c(F)cccc4s3)o2)c1 shows viability below 90%.
Ans: fulfilled

Q: Check if viability falls below 90% for CCOC(=O)C1=C(C)N=C2SC(C)C(=O)N2C1c1cccc(F)c1 (centres undefined) .
Ans: fulfilled

Q: Lab note: confirm whether the reported viability for this compound is below 90%, equality not counting. compound: CCOCC(=O)Nc1sc2c(c1C(=O)OCC)CCCC2
Ans: not fulfilled

Q: Lab note: confirm whether the reported viability for this compound is below 90%, equality not counting. compound: CCN(CC)c1ncc(C)c(=O)[nH]1
Ans: not fulfilled

Q: In the record for COc1ccc(-c2noc(CSc3nc(N)c(-c4ccccc4)c(=O)[nH]3)n2)cc1OC , is viability less than 90%?
Ans: fulfilled

Q: Consider the compound COc1ccc(CCNC(=O)c2ccc(N3CCCC3=O)cc2)cc1OC . Is its viability strictly less than 90%?
Ans: fulfilled

Q: Does this compound meet the criterion viability < 90%? COCCNS(=O)(=O)c1cc(F)ccc1OC
Ans: not fulfilled

Q: Quick check: does O=C(NC1CCCC1)C1CC1c1ccccc1 (centres undefined) have viability under 90%?
Ans: not fulfilled

Q: # TODO verify viability < 90% strictly for this compound: CCN1C(=O)CC(C(=O)Nc2ccc(F)cc2)SC1=Nc1ccc2c(c1)OCO2 (centres undefined)
Ans: fulfilled

Q: API: query returns whether the compound falls strictly under 90% in viability. Query: Cc1csc(NC(=O)c2ccco2)n1
Ans: fulfilled

Q: State whether 90% exceeds viability recorded for COc1ccc(C(=O)N(Cc2ccco2)C(C(=O)NC2CCCC2)c2ccc(O)cc2)cc1OC (centres undefined) .
Ans: fulfilled

Q: Is the reported viability for CCOP(=O)(c1ccc(N(C)C)cc1)C(O)c1ccccc1OC (centres undefined) strictly below 90%?
Ans: not fulfilled

Q: is_below(viability, 90%) for COC(=O)c1ccc(CSc2nnc(-c3ccncc3)o2)o1 ?
Ans: not fulfilled

Q: Just wondering, is viability of CCOC(=O)N1CCN(c2c(N3CCN(c4ccccn4)CC3)c(=O)c2=O)CC1 below 90%?
Ans: fulfilled
